Below: a set of entries, each annotated with reported TGI.
Tested on: CAKI-1 renal
ASSAY_OVERVIEW: NCI tumour cell line growth inhibition, 48 h

INSERT INTO results (smi, result) VALUES
  ('CN(O)C(=S)c1ccccc1', '81.3 µM'),
  ('N#Cc1cc(NC(=O)c2ccccc2)c(=O)n2c1[nH]c1ccccc12', '> 100 µM'),
  ('O=C(O)CCSC(=S)Nc1cccc(F)c1', '> 100 µM'),
  ('CC(=O)Oc1c2oc3cc(O)c(O)cc3c2c(OC(C)=O)c2oc3cc(O)c(O)cc3c12', '97.2 µM');

Request: Look up TGI for this molecule: CC(C)CN(CC#N)CC(C)C
Result: > 100 µM

Request: Look up TGI for this molecule: O=C(/C=C/c1ccc(O)c(O)c1)NCCc1ccc(-c2ccccc2)cc1
Result: > 100 µM

Request: Look up TGI for this molecule: COc1ncnc2c1cnn2Cc1cn(CCCCO)nn1
Result: > 100 µM

Request: Look up TGI for this molecule: CCOC(=O)NC(=O)c1cn(CCN2CCNCC2)c(=O)[nH]c1=O
Result: > 100 µM

###

System: SK-MEL-28 melanoma
ASSAY_OVERVIEW: NCI tumour cell line growth inhibition, 48 h
QUANTITY_NAME: TGI (µM)
Give the value, in units of µM, as a plain number.

INSERT INTO measurements (smi, quantity_name, display_unit, numeric_readout) VALUES
  ('CCN(CC)CCNc1ccc2nnn3c4ccccc4c(=O)c1c23', 'TGI', 'µM', 16);

Continue with the compound presented below.
Request: Can you look up TGI on SK-MEL-28 melanoma for CC[C@]12C=CCN3CC[C@@]4(c5ccc(OC)cc5N(C)[C@H]4[C@@](O)(C(=O)OC)[C@@H]1OC(=O)CCC(=O)N[C@H](Cc1c[nH]c4ccccc14)C(=O)OC)[C@@H]32 ?
Result: 5.44

###

System: TK-10 renal
ASSAY_OVERVIEW: NCI tumour cell line growth inhibition, 48 h
Below: a set of entries, each annotated with reported TGI.

Here is how some compounds turned out for TGI.
INSERT INTO results (compound, result) VALUES
  ('CCCCCCCCCCCCCC(=O)OCC1OC(n2cc(F)c(=O)[nH]c2=O)C(N)C(OC(=O)CCCCCCCCCCCCC)C1O (stereo unspecified)', '> 100 µM'),
  ('CC(Oc1ccccc1Cl)C(=O)NN1C(=O)CSC1c1ccc(Cl)cc1 (stereo unspecified)', '55.9 µM'),
  ('CC(=O)O/N=C(Cl)/C(Cl)=N/OC(C)=O', '> 100 µM'),
  ('Cc1nnc(-c2ccc(C)c(-c3ccc(C(=O)NCc4ccc(Cl)cc4)cc3)c2)o1', '> 25 µM'),
  ('CC(=O)O[C@H]1C(=O)[C@@]2(C)[C@H]([C@H](OC(=O)c3ccccc3)[C@@]3(O)C[C@H](O)C(C)=C1C3(C)C)[C@]1(OC(C)=O)CO[C@@H]1C[C@@H]2O', '> 100 µM');

Request: Look up TGI for this compound: O=c1nc2sc3ccc4ccccc4c3n2[nH]c1=O
Result: > 100 µM

Request: Look up TGI for this compound: CC(=O)NC(CCCCN(Cc1ccccc1)C(=O)N(CCCl)N=O)C(=O)NCc1ccccc1 (stereo unspecified)
Result: 73.9 µM

###

Test system: K-562 leukemia
ASSAY_OVERVIEW: NCI tumour cell line growth inhibition, 48 h
QUANTITY_NAME: TGI

Here is how some compounds turned out for TGI.
INSERT INTO assay_data (compound, result) VALUES
  ('COC(=O)c1c2c(cc3c1CC1(Cc4cc5c(cc4C1)CCC5)C3)CCC2', '> 100 µM'),
  ('COc1ccc(/C=C2/CCS(=O)(=O)c3ccc(C)cc3C2=O)cc1OC', '> 100 µM'),
  ('O=[N+]([O-])c1sc2ccc(Cl)cc2c1Nc1ccc(Cl)cc1', '> 100 µM'),
  ('NC(=Nc1nc(-c2ccccn2)cc2ccccc12)c1ccccn1', '5.3 µM'),
  ('CC[C@]12C=CCN3CC[C@@]4(c5ccc(OC)cc5N(C)[C@H]4[C@@](O)(C(=O)OC)[C@@H]1OC(=O)CCC(=O)N[C@H](Cc1c[nH]c4ccccc14)C(=O)OC)[C@@H]32', '> 100 µM');

Request: Can you look up TGI on K-562 leukemia for CCOC(=O)c1csc(NC(=O)COc2cccc(/C=C3\CSc4ccccc4C3=O)c2)n1 ?
Result: > 100 µM

Request: Can you look up TGI on K-562 leukemia for CN(C)c1ccc(C2ON=C(c3ccccc3)N2C23CC4CC(CC(C4)C2)C3)cc1 (stereo not given) ?
Result: > 10 µM

Request: Can you look up TGI on K-562 leukemia for COC(=O)C(=O)C(C(=O)C(=O)Nc1ccc(C)cc1)c1nc2ccc(C(=O)c3ccccc3)cc2[nH]c1=O (stereo not given) ?
Result: > 100 µM

Request: Can you look up TGI on K-562 leukemia for CC(CCCC1SCC2NC(=O)NC21)C(=O)O (stereo not given) ?
Result: > 100 µM

Request: Can you look up TGI on K-562 leukemia for COc1ccccc1NC(=S)Nc1cc(C)ccn1 ?
Result: > 100 µM

###

Test system: OVCAR-8 ovarian
ASSAY_OVERVIEW: NCI tumour cell line growth inhibition, 48 h
QUANTITY_NAME: TGI

INSERT INTO assay_data (compound, result) VALUES
  ('COC(=O)C1=C(O)[C@H](C(=O)OC)[C@]2(O)[C@@H](C(=O)OC)[C@H]1C[C@@H](c1ccc(OC(=O)/C=C/c3ccco3)cc1)[C@@H]2C(=O)OC', '> 100 µM');

Request: Look up TGI for this compound: CC(C)(C)NC/C(=C\c1ccccc1)C(=O)c1ccccc1
Result: 10.1 µM

Request: Look up TGI for this compound: C=C1C(=O)OC2CC3(C)CCCC(C)C3=CC12 (stereo not given)
Result: 37.3 µM

Request: Look up TGI for this compound: CC[C@@H](C)Nc1cc(C(=O)NC2CC3CCC(C2)N3c2ccc(C(=O)C3CC3)cn2)c(C)cc1C(N)=O (stereo not given in full)
Result: > 100 µM

Request: Look up TGI for this compound: CCN(CC)C(=S)SS(=O)(=O)c1ccccc1[N+](=O)[O-]
Result: > 56.9 µM

Request: Look up TGI for this compound: CN(C)c1ccc(C2ON=C(c3ccccc3)N2C23CC4CC(CC(C4)C2)C3)cc1 (stereo not given)
Result: > 10 µM

Request: Look up TGI for this compound: O=c1nc2sc3ccc4ccccc4c3n2[nH]c1=O
Result: > 100 µM

Request: Look up TGI for this compound: Cn1c(=O)oc2cc(Br)ccc21
Result: > 100 µM

Request: Look up TGI for this compound: CC1OC(O[C@H]2CC[C@]3(C=O)[C@H]4CC[C@]5(C)[C@H](C6=CC(=O)OC6)CC[C@]5(O)[C@@H]4C=C[C@]3(O)C2)CC(O)C1O (stereo not given in full)
Result: 0.754 µM

Request: Look up TGI for this compound: CCN(CC)CC(C)(C)C(=O)/C=C/c1ccc(/C=C/C(=O)C(C)(C)CN(CC)CC)cc1
Result: 0.774 µM

###

Tested on: HL-60(TB) leukemia
ASSAY_OVERVIEW: NCI tumour cell line growth inhibition, 48 h
Below: a set of entries, each annotated with reported TGI.

Here is how some molecules turned out for TGI.
INSERT INTO measurements (molecule, quantity_name, result) VALUES
  ('Nc1ccc2c(c1)Oc1c(F)c(F)cc3c(=O)c(C(=O)O)cn-2c13', 'TGI', '> 100 µM'),
  ('CC(O)CN1c2ccccc2Sc2ccc(Cl)cc21 (configuration not stated)', 'TGI', '> 10 µM'),
  ('OC(c1ccccc1)C(F)(F)c1nc2ccccc2o1 (configuration not stated)', 'TGI', '> 100 µM'),
  ('O=C(N/N=C(/COc1cccc(Cl)c1)N=Cc1cccnc1)c1ccncc1', 'TGI', '> 100 µM');

Request: Look up TGI for this molecule: CC(C)(C)NC(=O)C12C3C4C1C1C2C3C41C(=O)NC(C)(C)C (configuration not stated)
Result: > 100 µM

Request: Look up TGI for this molecule: O=C(O)Cn1c2c(c3c(O)cccc31)C(=O)c1ccccc1-2
Result: > 100 µM

Request: Look up TGI for this molecule: O=C(Nc1ccc2c(c1)OCO2)C(=O)c1c[nH]c2cc(F)ccc12
Result: > 100 µM

###

Test system: SK-MEL-2 melanoma
ASSAY_OVERVIEW: NCI tumour cell line growth inhibition, 48 h
QUANTITY_NAME: TGI

Here is how some compounds turned out for TGI.
INSERT INTO results (compound, quantity_name, result) VALUES
  ('Cn1c(-c2ccc(N=NNc3ccc(-c4n[nH]c(=S)n4C)cc3)cc2)n[nH]c1=S', 'TGI', '> 100 µM'),
  ('OC(c1ccccc1)C(F)(F)c1nc2ccccc2o1 (stereo not drawn)', 'TGI', '> 100 µM'),
  ('Cc1nc(Nc2ccccc2)sc1C(=O)CC(=O)C(=O)NC12CC3CC(CC(C3)C1)C2', 'TGI', '> 100 µM'),
  ('CC(NC(NC(C)C12CC3CC(CC(C3)C1)C2)=C(C(Cl)=C(Cl)Cl)[N+](=O)[O-])C12CC3CC(CC(C3)C1)C2 (stereo not drawn)', 'TGI', '> 67.6 µM'),
  ('O=C1/C(=C/c2cccs2)NC(=S)N1CN1CCCC(CO)C1 (stereo not drawn)', 'TGI', '> 100 µM');

Request: Look up TGI for this compound: CSc1nc(NC2OC(COC(C)=O)C(OC(C)=O)C(OC(C)=O)C2OC(C)=O)c(N=C(C)C(C)=O)c(=O)n1C (stereo not drawn)
Result: > 100 µM

Request: Look up TGI for this compound: CN(C)c1ccc(C2ON=C(c3ccccc3)N2C23CC4CC(CC(C4)C2)C3)cc1 (stereo not drawn)
Result: > 10 µM

Request: Look up TGI for this compound: CCOC(=O)NC(=O)c1cn(CCN2CCNCC2)c(=O)[nH]c1=O
Result: > 100 µM

Request: Look up TGI for this compound: CN(C)CCCNC(=O)c1cc(NC(=O)c2cc(NC(=O)[C@@H]3C[C@H]3C(=O)Nc3cc(C(=O)Nc4cc(C(=O)NCCCN(C)C)n(C)c4)n(C)c3)cn2C)cn1C
Result: > 100 µM

Request: Look up TGI for this compound: CC(=O)N=C1N(/C=C2\C(=O)Oc3ccccc3C2=O)C(=O)/C(=C/c2ccccc2Cl)N1C
Result: > 100 µM

Request: Look up TGI for this compound: C/C(CCn1[nH]c(=O)ccc1=O)=N\Nc1ccc([N+](=O)[O-])cc1[N+](=O)[O-]
Result: > 100 µM

Request: Look up TGI for this compound: Nc1ccc2c(c1)Oc1c(F)c(F)cc3c(=O)c(C(=O)O)cn-2c13
Result: > 100 µM

Request: Look up TGI for this compound: CO[C@@H]1[C@H]2[C@@H](C)c3ccoc3C[C@@H]2[C@@]2(C)CC[C@H](OC(=O)c3ccccc3)[C@](C)(C(=O)O)[C@]2(O)[C@@H]1OC(=O)c1ccccc1
Result: > 50 µM

Request: Look up TGI for this compound: CC1CC(C)C2=NOS3=C2C1=NO3 (stereo not drawn)
Result: > 100 µM

Request: Look up TGI for this compound: Cc1ccc(C)n1-n1c(-c2ccccc2)n[nH]c1=O
Result: > 100 µM

Request: Look up TGI for this compound: CCN(CC)C(=S)SS(=O)(=O)c1ccccc1[N+](=O)[O-]
Result: > 100 µM

Request: Look up TGI for this compound: CN1C(=O)C23CCCCC2CC1(c1ccccc1)S3 (stereo not drawn)
Result: > 100 µM
